- TEST_DETAILS: Test Example 1: Pharmacokinetic study in rats (intravenous)
- Format: in vivo
- SETUP_CONDITIONS: rat; SD rats, 5 mg/kg intravenous injection, plasma
REPORTED_METRIC: AUC(0-t) (ng·h/mL)

CC(C)=CCC/C(C)=C/CC[C@]1(C)Oc2c(c(O)cc3c2CN(CCC[C@@H](C(=O)O)N2Cc4c(cc(O)c5c4O[C@@](C)(CC/C=C(\C)CCC=C(C)C)[C@@H](O)C5)C2=O)C3=O)C[C@@H]1O; 8010
[2H]C([2H])(CC[C@@H](C(=O)O)N1Cc2c(cc(O)c3c2O[C@@](C)(CC/C=C(\C)CCC=C(C)C)[C@@H](O)C3)C1=O)N1Cc2c(cc(O)c3c2O[C@@](C)(CC/C=C(\C)CCC=C(C)C)[C@@H](O)C3)C1=O; 11300

----------
- TEST_DETAILS: Test Example 1: Pharmacokinetic study in rats (intravenous)
- Type: in vivo
- SETUP_CONDITIONS: rat; SD rats, 5 mg/kg intravenous injection, plasma
REPORTED_METRIC: Cmax (ng/mL)

CC(C)=CCC/C(C)=C/CC[C@]1(C)Oc2c(c(O)cc3c2CN(CCC[C@@H](C(=O)O)N2Cc4c(cc(O)c5c4O[C@@](C)(CC/C=C(\C)CCC=C(C)C)[C@@H](O)C5)C2=O)C3=O)C[C@@H]1O [SMTP-7]; 26300
[2H]C([2H])(CC[C@@H](C(=O)O)N1Cc2c(cc(O)c3c2O[C@@](C)(CC/C=C(\C)CCC=C(C)C)[C@@H](O)C3)C1=O)N1Cc2c(cc(O)c3c2O[C@@](C)(CC/C=C(\C)CCC=C(C)C)[C@@H](O)C3)C1=O [Compound 1, δ-Deutero SMTP-7]; 19100

----------
- TEST_DETAILS: Test Example 2: Pharmacokinetic study in rats (intravenous)
- Format: in vivo, SD rats
- SETUP_CONDITIONS: 5 mg/kg intravenous administration
REPORTED_METRIC: T1/2 (comparison in words)

CC(C)=CCC/C(C)=C/CC[C@]1(C)Oc2c(c(O)cc3c2CN(CCC[C@@H](C(=O)O)N2Cc4c(cc(O)c5c4O[C@@](C)(CC/C=C(\C)CCC=C(C)C)[C@@H](O)C5)C2=O)C3=O)C[C@@H]1O; did not greatly differ
[2H]C([2H])(CCN1Cc2c(cc(O)c3c2O[C@@](C)(CC/C=C(\C)CCC=C(C)C)[C@@H](O)C3)C1=O)[C@@H](C(=O)O)N1Cc2c(cc(O)c3c2O[C@@](C)(CC/C=C(\C)CCC=C(C)C)[C@@H](O)C3)C1=O; did not greatly differ
[2H][C@](CCCN1Cc2c(cc(O)c3c2O[C@@](C)(CC/C=C(\C)CCC=C(C)C)[C@@H](O)C3)C1=O)(C(=O)O)N1Cc2c(cc(O)c3c2O[C@@](C)(CC/C=C(\C)CCC=C(C)C)[C@@H](O)C3)C1=O; did not greatly differ

----------
- TEST_DETAILS: Test Example 2: Pharmacokinetic study in rats (intravenous)
- Assay type: in vivo, SD rats
- SETUP_CONDITIONS: 5 mg/kg intravenous administration
REPORTED_METRIC: AUC (comparison in words)

CC(C)=CCC/C(C)=C/CC[C@]1(C)Oc2c(c(O)cc3c2CN(CCC[C@@H](C(=O)O)N2Cc4c(cc(O)c5c4O[C@@](C)(CC/C=C(\C)CCC=C(C)C)[C@@H](O)C5)C2=O)C3=O)C[C@@H]1O; did not greatly differ
[2H][C@](CCCN1Cc2c(cc(O)c3c2O[C@@](C)(CC/C=C(\C)CCC=C(C)C)[C@@H](O)C3)C1=O)(C(=O)O)N1Cc2c(cc(O)c3c2O[C@@](C)(CC/C=C(\C)CCC=C(C)C)[C@@H](O)C3)C1=O; did not greatly differ
[2H]C([2H])(CCN1Cc2c(cc(O)c3c2O[C@@](C)(CC/C=C(\C)CCC=C(C)C)[C@@H](O)C3)C1=O)[C@@H](C(=O)O)N1Cc2c(cc(O)c3c2O[C@@](C)(CC/C=C(\C)CCC=C(C)C)[C@@H](O)C3)C1=O; did not greatly differ
